Ref: ChEMBL document CHEMBL5316381

Assayed System: DNA-dependent protein kinase catalytic subunit (Homo sapiens)
Sequence (P78527 whole entry): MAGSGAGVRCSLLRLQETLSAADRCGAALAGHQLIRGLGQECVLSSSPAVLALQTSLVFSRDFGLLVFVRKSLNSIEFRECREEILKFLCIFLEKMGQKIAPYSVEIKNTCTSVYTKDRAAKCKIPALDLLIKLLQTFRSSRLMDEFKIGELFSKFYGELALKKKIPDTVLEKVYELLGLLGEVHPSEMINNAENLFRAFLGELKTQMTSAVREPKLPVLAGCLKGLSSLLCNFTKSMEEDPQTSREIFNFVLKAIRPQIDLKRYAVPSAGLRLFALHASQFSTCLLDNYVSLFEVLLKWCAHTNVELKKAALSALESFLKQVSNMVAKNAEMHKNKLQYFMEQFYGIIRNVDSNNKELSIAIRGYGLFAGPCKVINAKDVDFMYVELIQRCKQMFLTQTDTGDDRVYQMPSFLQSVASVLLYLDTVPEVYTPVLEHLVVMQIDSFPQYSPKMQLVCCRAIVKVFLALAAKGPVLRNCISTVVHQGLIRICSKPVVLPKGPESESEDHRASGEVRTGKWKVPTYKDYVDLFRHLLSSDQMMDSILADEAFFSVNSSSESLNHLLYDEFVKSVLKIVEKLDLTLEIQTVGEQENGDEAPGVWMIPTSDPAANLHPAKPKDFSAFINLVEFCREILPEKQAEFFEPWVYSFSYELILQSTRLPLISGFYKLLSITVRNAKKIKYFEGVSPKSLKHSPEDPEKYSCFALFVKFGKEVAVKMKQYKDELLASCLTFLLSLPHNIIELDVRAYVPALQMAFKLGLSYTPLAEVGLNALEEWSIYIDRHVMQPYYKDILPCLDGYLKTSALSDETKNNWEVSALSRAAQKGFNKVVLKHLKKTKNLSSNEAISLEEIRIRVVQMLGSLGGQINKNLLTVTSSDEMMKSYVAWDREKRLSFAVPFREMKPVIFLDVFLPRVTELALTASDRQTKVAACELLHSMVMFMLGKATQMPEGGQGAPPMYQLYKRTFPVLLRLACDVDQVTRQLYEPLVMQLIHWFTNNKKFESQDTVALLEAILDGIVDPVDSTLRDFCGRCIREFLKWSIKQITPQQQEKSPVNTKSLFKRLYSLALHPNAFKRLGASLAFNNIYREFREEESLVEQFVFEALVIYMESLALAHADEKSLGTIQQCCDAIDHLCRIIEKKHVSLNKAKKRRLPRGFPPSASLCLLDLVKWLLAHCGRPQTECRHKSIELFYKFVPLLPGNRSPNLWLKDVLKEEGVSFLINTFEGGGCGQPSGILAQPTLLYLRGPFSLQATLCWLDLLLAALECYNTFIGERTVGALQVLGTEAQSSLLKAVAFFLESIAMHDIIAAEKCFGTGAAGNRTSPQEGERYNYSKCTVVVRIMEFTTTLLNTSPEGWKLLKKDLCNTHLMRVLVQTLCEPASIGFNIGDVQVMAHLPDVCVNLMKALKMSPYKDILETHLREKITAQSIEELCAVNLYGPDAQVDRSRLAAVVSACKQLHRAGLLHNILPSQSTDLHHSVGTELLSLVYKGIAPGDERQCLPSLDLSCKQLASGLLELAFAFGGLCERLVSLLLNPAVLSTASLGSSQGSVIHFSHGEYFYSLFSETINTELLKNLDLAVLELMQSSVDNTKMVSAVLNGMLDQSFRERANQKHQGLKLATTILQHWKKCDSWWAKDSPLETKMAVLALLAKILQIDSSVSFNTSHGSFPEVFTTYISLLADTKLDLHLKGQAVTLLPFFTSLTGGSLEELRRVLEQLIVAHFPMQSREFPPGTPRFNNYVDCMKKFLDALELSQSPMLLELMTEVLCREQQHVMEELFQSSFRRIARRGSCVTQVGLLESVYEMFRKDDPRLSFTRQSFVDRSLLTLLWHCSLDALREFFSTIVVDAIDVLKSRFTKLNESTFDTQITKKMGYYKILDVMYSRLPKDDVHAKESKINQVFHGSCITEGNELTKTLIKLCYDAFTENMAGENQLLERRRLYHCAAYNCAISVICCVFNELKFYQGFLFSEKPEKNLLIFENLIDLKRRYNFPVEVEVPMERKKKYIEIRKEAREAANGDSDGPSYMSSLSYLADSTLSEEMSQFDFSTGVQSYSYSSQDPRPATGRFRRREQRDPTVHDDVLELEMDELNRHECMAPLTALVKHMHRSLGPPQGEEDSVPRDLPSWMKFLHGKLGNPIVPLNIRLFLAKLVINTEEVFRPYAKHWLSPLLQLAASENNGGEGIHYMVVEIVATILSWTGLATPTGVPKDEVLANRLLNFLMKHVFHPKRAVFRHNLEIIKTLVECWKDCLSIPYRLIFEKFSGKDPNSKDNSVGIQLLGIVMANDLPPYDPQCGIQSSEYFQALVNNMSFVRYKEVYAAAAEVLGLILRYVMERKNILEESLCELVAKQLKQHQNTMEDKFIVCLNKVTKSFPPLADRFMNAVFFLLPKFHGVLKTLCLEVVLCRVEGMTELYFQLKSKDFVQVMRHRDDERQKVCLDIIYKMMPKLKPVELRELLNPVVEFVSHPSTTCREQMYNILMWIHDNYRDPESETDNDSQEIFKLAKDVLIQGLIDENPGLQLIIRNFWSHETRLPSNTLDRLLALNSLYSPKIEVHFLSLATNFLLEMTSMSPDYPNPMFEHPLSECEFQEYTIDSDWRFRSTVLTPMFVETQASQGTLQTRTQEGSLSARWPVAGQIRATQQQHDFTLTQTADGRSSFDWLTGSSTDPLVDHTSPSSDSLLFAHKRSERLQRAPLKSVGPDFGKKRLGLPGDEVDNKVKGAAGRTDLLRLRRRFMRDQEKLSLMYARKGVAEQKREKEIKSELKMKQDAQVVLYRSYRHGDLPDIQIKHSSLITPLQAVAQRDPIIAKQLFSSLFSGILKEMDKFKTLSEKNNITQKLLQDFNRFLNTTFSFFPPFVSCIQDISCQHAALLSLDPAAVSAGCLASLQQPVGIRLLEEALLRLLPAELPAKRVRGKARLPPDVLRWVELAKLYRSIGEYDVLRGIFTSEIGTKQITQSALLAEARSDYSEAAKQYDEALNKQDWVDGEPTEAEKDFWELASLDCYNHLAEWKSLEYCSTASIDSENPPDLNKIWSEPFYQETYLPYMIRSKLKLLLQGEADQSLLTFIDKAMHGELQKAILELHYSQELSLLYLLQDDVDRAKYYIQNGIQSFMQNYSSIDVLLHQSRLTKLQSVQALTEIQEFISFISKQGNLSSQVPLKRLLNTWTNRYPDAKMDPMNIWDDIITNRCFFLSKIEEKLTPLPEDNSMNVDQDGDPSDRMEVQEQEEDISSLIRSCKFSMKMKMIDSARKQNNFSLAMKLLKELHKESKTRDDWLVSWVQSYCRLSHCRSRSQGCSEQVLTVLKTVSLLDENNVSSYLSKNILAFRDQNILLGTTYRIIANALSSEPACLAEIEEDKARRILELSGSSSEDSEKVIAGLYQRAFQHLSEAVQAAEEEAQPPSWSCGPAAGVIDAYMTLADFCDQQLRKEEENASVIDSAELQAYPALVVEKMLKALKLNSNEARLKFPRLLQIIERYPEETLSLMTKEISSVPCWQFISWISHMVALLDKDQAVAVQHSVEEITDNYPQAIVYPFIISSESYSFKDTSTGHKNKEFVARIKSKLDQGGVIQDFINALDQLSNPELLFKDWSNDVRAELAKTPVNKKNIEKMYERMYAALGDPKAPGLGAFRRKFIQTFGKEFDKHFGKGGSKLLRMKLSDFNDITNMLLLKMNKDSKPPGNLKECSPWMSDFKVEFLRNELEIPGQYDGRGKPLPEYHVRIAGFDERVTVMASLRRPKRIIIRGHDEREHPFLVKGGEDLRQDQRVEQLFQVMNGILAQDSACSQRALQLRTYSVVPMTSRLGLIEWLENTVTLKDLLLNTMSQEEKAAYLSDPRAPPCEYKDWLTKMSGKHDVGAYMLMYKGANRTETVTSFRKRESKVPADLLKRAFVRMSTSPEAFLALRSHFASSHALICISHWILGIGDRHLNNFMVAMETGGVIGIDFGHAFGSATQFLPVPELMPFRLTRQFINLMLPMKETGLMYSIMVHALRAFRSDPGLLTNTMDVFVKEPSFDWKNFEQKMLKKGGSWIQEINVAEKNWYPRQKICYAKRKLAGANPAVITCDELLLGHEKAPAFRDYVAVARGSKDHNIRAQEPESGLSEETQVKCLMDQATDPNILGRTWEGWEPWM
Test: Inhibition of DNA-PK (unknown origin) using GST-cMyc-p53 as substrate incubated for 30 mins in the presence of Mg/ATP mix by HTRF-based analysis

[
  {
    "Mol Smiles": "C[C@H](c1ccccc1)n1nnc2cnc3ccc(-c4ccc(OCCCN(C)C)nc4)cc3c21",
    "Unit Label": "nM",
    "IC50": 123
  }
]

---

Assayed System: PI3K p110 beta/p85 alpha (Homo sapiens, UniProt P42338)
Test: Inhibition of human PI3K p110 beta/p85 alpha using phosphatidylinositol-4, 5-bisphosphate as substrate incubated for 30 mins in the presence of Mg/ATP mix by HTRF-based analysis

[
  {
    "Mol Smiles": "C[C@H](c1ccccc1)n1nnc2cnc3ccc(-c4ccc(OCCCN(C)C)nc4)cc3c21",
    "Unit Label": "nM",
    "IC50": 1850
  }
]
